System: G-clamp-N3 (biotin conjugate)
Assay: pull-down binding Z-score (relative to library population); higher = stronger binding
Conditions: RNA library: Library-1 (pre-miRNA loops + repeats)
QUANTITY_NAME: pull-down binding Z-score
Give only the figure.

Recorded pull-down binding Z-score for CUCGCUGGGAGGUGUGCUAUCGUCUUCCCUGGGAG [hsa-mir-3689d-2] , please?
-0.351

---

Test system: TO-N3-2 (biotin conjugate)
Experiment: pull-down binding Z-score (relative to library population); higher = stronger binding
Settings: RNA library: Library-2
Decide using pull-down binding Z-score: a value greater than or equal to 0.01 is Yes, a smaller one is No.

Please tell me: is the sequence GUGGCCUUGGACAAGCCUCUUGGUUAC [hsa-mir-4672] at or over 0.01 in terms of pull-down binding Z-score?
Yes

Decide: is the reported value of pull-down binding Z-score for ACUUCAGAUGCUUCAUGACA [hsa-mir-6865] equal to or greater than 0.01?
No

Can GUUGGCUCAAGAAAGGGAGAUAGAUGGUAGCCC [hsa-mir-6884] be said to have pull-down binding Z-score at or above 0.01?
Yes

Form field: pull-down binding Z-score at least 0.01? Entry: GUUACUGUGGGAACUGGAGGUAAC [hsa-mir-132]
Yes

Could you tell me if the measured pull-down binding Z-score of UGAUUUGUGACUUAAGAUUAAAAUCA [hsa-mir-23b] reaches 0.01 or more?
No

Test whether the sequence GAGCUUCGUGUACAUUAUCUAUUAGAAAAUGAAGUAC [hsa-mir-4724] records pull-down binding Z-score of 0.01 or higher.
Yes

---

Tested on: TO-3-N3-2 (biotin conjugate)
Assay: pull-down binding Z-score (relative to library population); higher = stronger binding
Conditions: RNA library: Library-2
QUANTITY_NAME: pull-down binding Z-score
Number, no unit, nothing else.

Example results:
Hi! What's the reported pull-down binding Z-score for UCUGGGGAGAGAGUCCUCUUUUCAGC [hsa-mir-8082] on TO-3-N3-2 (biotin conjugate)?
-0.234

Form entry - test system: TO-3-N3-2 (biotin conjugate); read-out: pull-down binding Z-score; sequence: UCUCUAUGACAAACUUGUUUCAAGCUUUUUGGAAAUGAAGAGUGAAAAGCAAGUUGAACAAAAGAUCGCUGAGA [SHAPE_invitro_SARS-CoV-2_Motif_69]
-0.507

# get_value(readout= pull-down binding Z-score, system= TO-3-N3-2 (biotin conjugate)) for UCCCCUCAGGA [hsa-mir-5703]
-0.595

Next:
Return pull-down binding Z-score measured with TO-3-N3-2 (biotin conjugate) given this sequence: UCUUUAAGGAAGGAAGUUCUGUUGAAUUAAAACACUUCUUCUUUGCUCAGGA [DMSMaPseq_invitro_SARS-CoV-2_Motif_265]
-0.179

Query the reported pull-down binding Z-score for TO-3-N3-2 (biotin conjugate); item: UCAAUUAUUAUAAGAAAGUUGA
-0.0592

// fetch TO-3-N3-2 (biotin conjugate) pull-down binding Z-score for GGGCCUGGGUUUCUGAACAC [hsa-mir-196a-1]
0.334

Field: pull-down binding Z-score (TO-3-N3-2 (biotin conjugate)). Entry: GGGCCCCAAGACUCGGGGUUU [hsa-mir-4651]
-0.00221

Request: pull-down binding Z-score, test system TO-3-N3-2 (biotin conjugate), entry UGUUGAGCGCAGUAAGACAACA [hsa-mir-3529]
-0.0511

Query pull-down binding Z-score on TO-3-N3-2 (biotin conjugate) for GUUGACAGGACACGAGUAACUCGUCUAUCUUCUGCAGGCUGCUUACGGUUUCGUCCGUGUUGCAGCCGAUCAUCAGC
-0.335

Find the measured pull-down binding Z-score: item GGUCUGCAGGACU [IAV_invivo_PA_3_Motif_27+IAV_invivo_PA_3_Motif_27] , target or system TO-3-N3-2 (biotin conjugate).
-0.237

Checklist item: pull-down binding Z-score tested on TO-3-N3-2 (biotin conjugate), entry CUUUACCAACCACCACAAACCUCUAUCACCUCAGCUGUUUUGCAGAGUGGUUUUAGAAAAAUGGCAUUCCCAUCUGGUAAAG , value?
0.13

What is its pull-down binding Z-score for TO-3-N3-2 (biotin conjugate)? Entry: CACCUCCCGGCCCGGAGCUG [hsa-mir-4734]
-0.473

Give TO-3-N3-2 (biotin conjugate) pull-down binding Z-score for GAGAUGUGAUCCUGCCACAUCUC [hsa-mir-1304]
-0.00394

Query the reported pull-down binding Z-score for TO-3-N3-2 (biotin conjugate); item: AAGCUGAUGAGUACGAACUUAUGUACUCAUUCGUUU
-0.284

Requested read-out pull-down binding Z-score, target or system TO-3-N3-2 (biotin conjugate), entry GUGUUUUCUCCUUUAGAGAGAGCUG [hsa-mir-4299]
-0.23

Kindly state the measured pull-down binding Z-score obtained for CAUGGAUUUGUCUUCUACAAUUUGCCUAUG with TO-3-N3-2 (biotin conjugate).
-0.186

Return pull-down binding Z-score measured with TO-3-N3-2 (biotin conjugate) given this sequence: UUUCUGUUGUCUAAAAGAAAAGAAA [hsa-mir-527]
-0.186

Find the measured pull-down binding Z-score: item UGCUGGUGCUAGAGAGGAAAGCA [hsa-mir-4748] , target or system TO-3-N3-2 (biotin conjugate).
0.315

Give the reported pull-down binding Z-score for CAUGUGGUGGAACGAUGGAAACGGAACAUG [hsa-mir-218-2] (system: TO-3-N3-2 (biotin conjugate)).
-0.027

Param readout= pull-down binding Z-score; system= TO-3-N3-2 (biotin conjugate); entry= GAGCUGCCCUGUCGGUGAAGCUC [IAV_invivo_NA_6_Motif_6+IAV_invivo_NA_6_Motif_6] ; returns value.
-0.0787

Requested read-out pull-down binding Z-score, target or system TO-3-N3-2 (biotin conjugate), entry AUGGCCCCGAUUUCAGCUAU [SHAPE_invivo_SARS-CoV-2_Motif_151]
-0.281

What measured pull-down binding Z-score is associated with GCCACUAGUCUCUAGUCAGUGUGUUAAUCUUACAACCAGAACUCAAUUACCCCCUGCAUACACUAAUUCUUUCACACGUGGU [SHAPE_invivo_SARS-CoV-2_Motif_403] on TO-3-N3-2 (biotin conjugate)?
0.101

For TO-3-N3-2 (biotin conjugate), provide pull-down binding Z-score of UACUUUACUCAGAGUA [SHAPE_invitro_SARS-CoV-2_Motif_368] please.
-0.589

Origin of the recorded values: the supplement of paper PMC11865577
